# System: SK-MEL-2 melanoma
# MEASUREMENT DESCRIPTION: NCI tumour cell line growth inhibition, 48 h
*1 amine or outer side, *2 acyl side, *3 side chain or, on linkers, in order; H or OH if unused. Where a SMILES comes first, the peptide text is derived from it. [ ]: non-standard residue; d: D form. The star is where a group is joined. ξ: configuration not given here. X53 = CC(C)C[C@H](N[*:1])C1=N[C@H](C(=O)[*:2])CS1; Ile(3ξ) = CCC(C)[C@H](N)C(=O)O; Allyl(1,1-Me2) = C=CC(C)(C)*
MEASURED METRIC: TGI

Reference set, count: 6
COc1cc(C2CC(c3ccc(SC)cc3)=NN2C(C)=O)cc(OC)c1OC (stereo not given) | 60.3 µM
COc1ccc(P2(=S)OCCOP(=S)(c3ccc(OC)cc3)S2)cc1 (stereo not given) | > 100 µM
COc1cc(Nc2cc(O)c3c(=O)cc(-c4ccccc4)oc3c2)cc(OC)c1 | 40.4 µM
O=c1c(-c2ccccc2)c(SCCN2CCCC2)n(-c2ccccc2)c(=S)n1-c1ccccc1 | > 100 µM
NC(=O)C1CCCNC1 (stereo not given) | > 100 µM
CC1(C)COC(c2ccccc2-c2ccccc2)=N1 | > 100 µM

Lab note: C=CC(C)(C)OC[C@@H]1NC(=O)CNC(=O)[C@@H]2CCCN2C(=O)[C@H](C(C)CC)NC(=O)[C@@H]2CSC(=N2)[C@H](CC(C)C)NC1=O (stereo not given in full) (cyclo(GS(Allyl(1,1-Me2))[X53][Ile(3ξ)]P)) gave TGI of > 100 µM

Lab note: CCOC(=O)[C@]12C3C=CC(C3)C1C(=O)C1OC12 (stereo not given in full) gave TGI of > 100 µM

Lab note: C#CC1(O)C(COP(=O)(O)OC(COCCCCCCCCCCCCCCCCCC)COP(=O)(O)OCC2OC(n3cc(C)c(=O)[nH]c3=O)CC2N=[N+]=[N-])OC(n2ccc(N)nc2=O)C1O (stereo not given) gave TGI of 2.44 µM

Lab note: O=C1CC(=O)c2c(N3CCCC3)sc(N3CCCC3)c21 gave TGI of > 100 µM

====

# Test system: SW-620 colon
# MEASUREMENT DESCRIPTION: NCI tumour cell line growth inhibition, 48 h
MEASURED METRIC: TGI

Reference set, count: 2
COC1=C(C)C(=O)N2[C@@H]1[C@H](c1ccccc1)OC21C=CC(=O)C=C1 | 2.78 µM
CNc1ccccc1S(=O)(=O)c1ccccc1[N+](=O)[O-] | > 100 µM

--- query ---
Lab note: CCCCCCCCCCCCCCCCOCC(Cl)CP(=O)(O)OP(=O)(O)OCC1OC(n2cnc3c(N)ncnc32)C(O)C1O (stereo not drawn) gave TGI of > 100 µM

====

# System: KM12 colon
# MEASUREMENT DESCRIPTION: NCI tumour cell line growth inhibition, 48 h
Reported GI50 values for the following compounds.

Reference set, count: 4
Cn1c([N+](=O)[O-])cnc1/C=C1\Oc2ccc(Br)cc2C1=O | 0.312 µM
O=c1[nH]cnc2c1ncn2C1CCC(CO)O1 (stereo not given) | > 1000 µM
O=C(c1ccc(Oc2ccccc2)cc1Cl)c1c[nH]c2ncnc(N[C@@H]3CC[C@@H](CO)OC3)c12 | 0.0377 µM
Cc1ccc(N(CC(=O)Nc2ccc(S(=O)(=O)NC3CCN(C)CC3)cc2)S(=O)(=O)c2ccc(Cl)cc2)cc1 | 2.85 µM

--- query ---
Recorded GI50 for O=C1NC(=O)/C(=C/c2ccc3ncccc3c2)S1 on KM12 colon was > 25 µM

====

# Test system: COLO 205 colon
# MEASUREMENT DESCRIPTION: NCI tumour cell line growth inhibition, 48 h
MEASURED METRIC: TGI

Reference set, count: 3
C#CC1(O)C(COP(=O)(O)OC(COCCCCCCCCCCCCCCCCCC)COP(=O)(O)OCC2OC(n3cc(C)c(=O)[nH]c3=O)CC2N=[N+]=[N-])OC(n2ccc(N)nc2=O)C1O (stereo unspecified) | 5.23 µM
COC(=O)CCCC(=O)C1=Nc2ccccc2CN(c2ccc(Cl)cc2)N1 | > 100 µM
O=C(O)C1(Nc2ccc(Cl)cc2)CCCC1 | > 100 µM

Lab note: COc1ccc(P2(=S)OCCOP(=S)(c3ccc(OC)cc3)S2)cc1 (stereo unspecified) gave TGI of 55.8 µM

Lab note: CC1(C)COC(c2ccccc2-c2ccccc2)=N1 gave TGI of > 100 µM

====

# Tested on: SNB-19 CNS
# MEASUREMENT DESCRIPTION: NCI tumour cell line growth inhibition, 48 h; in the data active = GI50 below about 0.43 µM; inactive = the rest
Could you please pick one outcome from this set? True for active, False for inactive

Please review the entries below; each comes with its answer.
O=[N+]([O-])c1cc([N+](=O)[O-])c(NN=C(c2ccc(O)cc2)c2ccc(O)cc2)cc1Cl | True
COc1cc(/C=C/c2cc(/C=C/c3ccc(O)c(OC)c3)n(C(N)=O)n2)ccc1O | False

Note: attention shifts to another entry.
Query: What classification did COc1cc2c(Oc3ccc4[nH]c(C)cc4c3F)ncnc2cc1OCCCN1CCCC1 end up with in this test?
Result: False

====

Reported TGI values for the following molecules.
# Test system: HT29 colon
# MEASUREMENT DESCRIPTION: NCI tumour cell line growth inhibition, 48 h

Reference set, count: 5
COc1ccccc1-c1cc(=O)c2c(C)cc(C)nc2[nH]1 | > 100 µM
CC(=O)N(C)C(C(=O)N1CC(C)CC1C(=O)N(C)C1C(=O)NC(CC(C)C)C(=O)N2CC(C)CC2C(=O)NC(CC(C)C)C(=O)N(C)C(C(C)C)C(=O)N2CCCC2C(=O)N(C)C(CC(C)C)C(=O)NCC(=O)OC1C)C(C)C (centres undefined) | > 100 µM
COC(=O)CCCC(=O)C1=Nc2ccccc2CN(c2ccc(Cl)cc2)N1 | > 100 µM
COC1=CC(=O)c2c(c(-c3csc(C)n3)cn2C)C1=O | 91.6 µM
Cc1cc(C)nc(NS(=O)(=O)c2ccc(NC(=O)c3cccc4c(Nc5ccc(S(=O)(=O)N=C(N)N)cc5)c5ccccc5nc34)cc2)n1 | > 100 µM

Lab note: CSc1ccc(C2=NN(c3ccccc3)C(c3ccc(-c4cc(Cl)c(Cl)cc4Cl)o3)C2)cc1 (centres undefined) gave TGI of > 100 µM

Lab note: CN(C)CCNc1c2c(c(NCCN(C)C)c3c(CN(C)C)c[nH]c13)C(=O)c1ccccc1C2=O gave TGI of 27.4 µM

Lab note: C#CC1(O)C(COP(=O)(O)OC(COCCCCCCCCCCCCCCCCCC)COP(=O)(O)OCC2OC(n3cc(C)c(=O)[nH]c3=O)CC2N=[N+]=[N-])OC(n2ccc(N)nc2=O)C1O (centres undefined) gave TGI of > 50.9 µM

Lab note: C1C[OH+]CCNCC[OH+]CC[OH+]CCN1.O.[Cl-].[Pt+4] gave TGI of > 100 µM

Lab note: Cc1cccc(NS(=O)(=O)c2ccc3c(c2)OCCOCCOCCOCCO3)c1 gave TGI of > 100 µM

Lab note: CCc1cccc(C(C)CC)c1NC(=O)CC1C(=O)Nc2ccccc2S1(=O)=O (centres undefined) gave TGI of 47.9 µM

Lab note: CC1=C(C)C(=O)C(C2=C(C3=CC(=O)C(C)=C(C)C3=O)C(=O)C(C)=C(C)C2=O)=CC1=O gave TGI of 9.02 µM

Lab note: CN1N(c2ccccc2)C(=O)C2=NC=C(C(=O)c3ccccc3)C(=N)C21C (centres undefined) gave TGI of > 100 µM

Lab note: COc1ccc2nccc(/C=C/c3ccc(N(C)C)cc3)c2c1 gave TGI of > 10 µM

====

# System: HS 578T breast
# MEASUREMENT DESCRIPTION: NCI tumour cell line growth inhibition, 48 h
MEASURED METRIC: TGI

Reference set, count: 3
FC(F)(F)c1ccc2c(c1)nc(-c1ccccc1)n2CC1CCCN2CCCCC12 (stereo unspecified) | 33.9 µM
CN(c1ccc(C(=O)O)cc1)c1cc(O/N=[N+](\[O-])N(C)C)c([N+](=O)[O-])cc1[N+](=O)[O-] | 61.3 µM
CN(C)c1nc2nonc2nc1Nc1ccccc1 | > 100 µM

Lab note: CCCCCCCCCCCCCCCCOCC(Cl)CP(=O)(O)OP(=O)(O)OCC1OC(n2cnc3c(N)ncnc32)C(O)C1O (stereo unspecified) gave TGI of > 100 µM

Lab note: COc1ccc(C(c2ccc(OC)cc2)N2C(=O)CCC2C(=O)O)cc1 (stereo unspecified) gave TGI of > 100 µM

====

Reported TGI values for the following molecules.
# Test system: OVCAR-5 ovarian
# MEASUREMENT DESCRIPTION: NCI tumour cell line growth inhibition, 48 h

O=C(O)C1(Nc2ccc(Cl)cc2)CCCC1 | > 100 µM

--- query ---
Recorded TGI for COc1cc(C2CC(c3ccc(SC)cc3)=NN2C(C)=O)cc(OC)c1OC (centres undefined) on OVCAR-5 ovarian was > 100 µM
